Assayed System: T1, wild type CD70-His-Avi (human, UniProt P32970 45-193)
T1 sequence (looked up): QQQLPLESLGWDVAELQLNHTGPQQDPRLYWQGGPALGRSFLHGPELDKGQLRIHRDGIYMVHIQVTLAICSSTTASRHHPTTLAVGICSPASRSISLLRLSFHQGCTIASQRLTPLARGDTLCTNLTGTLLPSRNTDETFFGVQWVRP
Assay Overview: SPR
Measured Property: kon (M⁻¹ s⁻¹)

1. CD27-S83A (receptor, human, UniProt P26842 23-127, looked up, glycosylated) APKSCPERHYWAQGKLCCQMCEPGTFLVKDCDQHRKAAQCDPCIPGVSFSPDHHTRPHCEACRHCNSGLLVRNCTITANAECACRNGWQCRDKECTECDPLPNPS | 33600

I. CD27-K115A (receptor, human, UniProt P26842 23-127, looked up, glycosylated) APKSCPERHYWAQGKLCCQMCEPGTFLVKDCDQHRKAAQCDPCIPGVSFSPDHHTRPHCESCRHCNSGLLVRNCTITANAECACRNGWQCRDAECTECDPLPNPS
II. CD27-R30A (receptor, human, UniProt P26842 23-127, looked up, glycosylated) APKSCPEAHYWAQGKLCCQMCEPGTFLVKDCDQHRKAAQCDPCIPGVSFSPDHHTRPHCESCRHCNSGLLVRNCTITANAECACRNGWQCRDKECTECDPLPNPS
III. CD27-N95A (receptor, human, UniProt P26842 23-127, looked up) APKSCPERHYWAQGKLCCQMCEPGTFLVKDCDQHRKAAQCDPCIPGVSFSPDHHTRPHCESCRHCNSGLLVRACTITANAECACRNGWQCRDKECTECDPLPNPS
Query :: Please order the records by their reported kon, lowest number first. Order the labels as requested and list them.
Result :: II, I, III
(II: 13400 M⁻¹ s⁻¹, I: 34500 M⁻¹ s⁻¹, III: 72500 M⁻¹ s⁻¹)

Reference for the values: paper PMC8484739
